- Assay: Solubility of bromhexine base in phosphate buffer / aqueous medium
- Type: physicochemical
- Experimental setup: aqueous buffer; pH 4.5, phosphate buffer
Reported metric: solubility (µg/mL)

>>> number("CN(Cc1cc(Br)cc(Br)c1N)C1CCCCC1 [bromhexine]")
650

====

- Assay: Solubility of bromhexine base in phosphate buffer / aqueous medium
- Format: physicochemical
- Experimental setup: aqueous buffer; pH 6.0, phosphate buffer
Reported metric: solubility (µg/mL)

>>> number("CN(Cc1cc(Br)cc(Br)c1N)C1CCCCC1 [bromhexine]")
30

====

- Assay: Solubility of bromhexine base in phosphate buffer / aqueous medium
- Type: physicochemical
- Experimental setup: aqueous buffer; pH 6.5, phosphate buffer
Reported metric: solubility (µg/mL)

>>> number("CN(Cc1cc(Br)cc(Br)c1N)C1CCCCC1")
10
